Where these numbers come from: patent US20230295200A1

# Tested system: STAT6 protein (Homo sapiens, UniProt P42226)
# Sequence (P42226 1-847): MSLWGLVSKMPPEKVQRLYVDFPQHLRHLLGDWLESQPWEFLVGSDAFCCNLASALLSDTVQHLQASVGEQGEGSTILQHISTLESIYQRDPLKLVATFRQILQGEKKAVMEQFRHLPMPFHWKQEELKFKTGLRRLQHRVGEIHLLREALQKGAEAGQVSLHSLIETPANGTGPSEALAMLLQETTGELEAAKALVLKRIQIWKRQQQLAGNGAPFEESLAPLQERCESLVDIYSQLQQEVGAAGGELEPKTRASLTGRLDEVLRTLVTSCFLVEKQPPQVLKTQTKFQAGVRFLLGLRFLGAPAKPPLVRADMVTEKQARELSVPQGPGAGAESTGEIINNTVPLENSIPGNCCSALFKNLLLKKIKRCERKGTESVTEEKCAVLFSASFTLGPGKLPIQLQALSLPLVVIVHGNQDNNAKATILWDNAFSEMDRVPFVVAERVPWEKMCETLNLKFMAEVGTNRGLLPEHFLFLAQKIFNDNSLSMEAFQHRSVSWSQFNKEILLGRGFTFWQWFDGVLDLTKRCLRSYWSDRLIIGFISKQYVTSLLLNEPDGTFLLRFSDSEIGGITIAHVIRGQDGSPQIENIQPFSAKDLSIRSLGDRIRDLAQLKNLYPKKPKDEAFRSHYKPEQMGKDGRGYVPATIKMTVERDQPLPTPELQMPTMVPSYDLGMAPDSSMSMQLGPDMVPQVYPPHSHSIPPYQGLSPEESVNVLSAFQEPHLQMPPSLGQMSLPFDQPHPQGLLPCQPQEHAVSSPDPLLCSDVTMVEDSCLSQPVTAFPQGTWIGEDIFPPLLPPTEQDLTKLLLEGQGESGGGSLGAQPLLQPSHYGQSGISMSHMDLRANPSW
# Protocol description: Fluorescence polarization (FP) binding assay, STAT6
# Measurement parameters: FP competition, 5 nM fluorescein-labeled tracer, 200 nM protein, PBS pH7.4; read-out: Binding STAT6
pKi: −log10 of the molar value.
Value kind: pKi

Consider the following illustrative entries.
>  <Molecule>
CC(=O)N1CC[C@H]2CC[C@@H](C(=O)N(C)C(c3ccccc3)c3ccccc3)N2C(=O)[C@@H](NC(=O)c2cc3cc(C(F)(F)P(=O)(O)O)ccc3[nH]2)C1 [Compound 7]

>  <Tested system>
STAT6 protein (Homo sapiens, UniProt P42226)

>  <pKi>
5.00 to 6.00

$$$$
>  <Molecule>
CC(C)(C)[C@H](NC(=O)c1cc2cc(C(F)(F)P(=O)(O)O)ccc2s1)C(=O)N1CCC[C@H]1C(=O)N1CCOC(c2cccc3ccccc23)C1 (stereo partly drawn) [Compound 129]

>  <Tested system>
STAT6 protein (Homo sapiens, UniProt P42226)

>  <pKi>
6.00 to 7.00

$$$$

# next molecule below
Suppose we examine the molecule CC(C)(C)[C@H](NC(=O)c1cc2cc(C(F)(F)P(=O)(O)O)ccc2s1)C(=O)N1Cc2ccccc2[C@H]1C(=O)N1CC[C@H](c2ccccc2)C1 [Compound 197] ; what pKi value has been reported?
5.00 to 6.00
